Origin of the recorded values: ChEMBL document CHEMBL5131399

MIC for assorted compounds
# Tested on: Aspergillus fumigatus
# assay_details: Antifungal activity against Aspergillus fumigatus CGMCC3.7795 assessed as fungal growth inhibition by NCCLS protocol based method
# Assay type: functional
Just the number please, in µg/mL, no unit attached.

# compound, test_value
rows = [
    ("N#Cc1ccc(-c2ccc(C3=NC(Cn4ccnc4)(c4ccc(F)cc4)CO3)s2)cc1 (stereo not given)", 16),
]

[in] Endpoint output: MIC of Fc1ccc(C2(Cn3ccnc3)COC(c3ccc(-c4ccccc4Cl)s3)=N2)cc1 (stereo not given) . Value?
[out] 16

[in] // returns reported MIC for input Fc1ccccc1C1(Cn2ccnc2)COC(c2ccc(-c3ccccc3)s2)=N1 (stereo not given)
[out] 8

[in] Returns the measured MIC for the input compound. Input: Fc1ccc(C2(Cn3ccnc3)COC(c3ccc(-c4ccccc4F)s3)=N2)cc1 (stereo not given)
[out] 0.25

[in] Find the recorded MIC belonging to Fc1ccc(C2(Cn3ccnc3)COC(c3ccc(-c4ccc(Cl)cc4)s3)=N2)cc1 (stereo not given) and report it.
[out] 8
